# measured.on: human CLDN18.2 (human)
# assay.explanation: cell-based or functional assay
Entries and their measured Internalization percentage (%), HEK293T-hCLDN18.2 cells, flow cytometry, 10 µg/mL antibody follow.
Number only, in %; omit the unit.

Previously resolved entries follow.
binder	unit.spec	measurement
37B1-chIgG1 (antibody, V domains shown, human-mouse chimeric antibody, human IgG1/kappa constant regions) VH: EVRLQQSGPELVKPGASVKMSCKASGYSFTDYNMHWVKQSHGKSPEWVGYINPNKGGTGYNQKFKGKATLTVNKSSSTANMELRSLTSEDSAVYYCARIWYGNSFAYWGQGTLVTVSA VL: DVVMTQSPSSLTVTAGEKVTMSCKSSQSLLNSGNQKNYLTWYQQKPGQPPKLLIYWASTRESGVPDRFTGSGSGTDFTLTISSVQAEDLAVYFCQNDYFYPFTFGSGTKLEIKR	%	-3.2
5F9-chIgG1 (antibody, V domains shown, human-mouse chimeric antibody, human IgG1/kappa constant regions) VH: QVQLQQSGAELVKPGASVKLSCKASGYTFTSYWMHWVKQRPGQGLEWIGMIHPNSVSTNYNEKFKSKATLTVDKSSSTAYMQLSSLTSEDSAVYYCAVYFDYWGQGTTLTVSS VL: DIQVTQSPSSLSASLGERVSLTCRASQDIGSSLNWLQQEPDGTIKRLIYASSSLNSGVPKRFSVSRSGSDYSLTISSLESEDFVDYYCLQYATSPPTFGGGTKLEIKR	%	9.3
27B5-chIgG1 (antibody, V domains shown, human-mouse chimeric antibody, human IgG1/kappa constant regions) VH: QVQLQQPGTELVKPGASVKLSCKASGYTFTSYWMHWVKQRPGQGLEWIGNIHPSNGGSNHNEKFKSKATLTVDKSSSTAYMQLSSLTSEDSAVYYCAPIYYGNSLAYWGHGTLVTVSA VL: DVVMTQSPSSLTVTAGEKVTMSCKSSQSLLNSGNQKNYLTWYQQKPGQPPKLLLYWASTRESGVPDRFTGSGSGTDFTLTISSVQAEDLAVYYCQNSYFYPFTFGSGTKLEIKR	%	-2.2
44A8-chIgG1 (antibody, V domains shown, human-mouse chimeric antibody, human IgG1/kappa constant regions) VH: EVRLQQSGPELVKPGASVKMSCKASGYTFTDYNMHWVKQSHGKSLEWIGYINPKNGGIRYNQKFTGKATLTVNKSSSTAYMELRSLTSEDSAVYYCARGGYYGNTLDNWGQGTSVTVSS VL: DIVMTQSPSSLTLTAGEKVTMSCKSSQSLLNSGNQKNYLTWYQQKPGQPPKLLIYWASTSESGVPDRFTGSGSGTDFTLTISSVQAEDLAIYYCQNAYFYPWTFGGGTKLEIKR	%	2.5
1D10-chIgG1 (antibody, V domains shown) VH: QVQLQQPGAELVKPGASVKLSCKASGYTFTSYWMHWVKQRPGQGLEWIGMIYPNSGSINYNEKFKNKATLTVDKSSSTAYMQLSSLTSEDSAVYFCSVYFDYWGQGTTLTVSS VL: DIQGTQSPSSLSASLGERVSLTCRASQDIGSSLNWLQQEPDGTIKRLIYATSSLDSGVPKRFSVSRSGSDYSLTISSLESEDFVDYYCLQYASSPPTFGGGTKLEIKR	%	28.7

Lookup: Can you look up the measured Internalization percentage (%), HEK293T-hCLDN18.2 cells, flow cytometry, 10 µg/mL antibody of 44F7-chIgG1 (antibody, V domains shown, human-mouse chimeric antibody, human IgG1/kappa constant regions; also called parental chimeric antibody) VH: QVQLQQSGAELVRPGASVKMSCKASGYTFTSYNMHWVKQAPRQGLEWIGTIYPGNGDTSYNQKFKGKATLTVDKSSSTAYMQLSSLTSEDSAVYFCARGGYYGNSLDYWGQGTTLTVSS VL: DIQMTQSPSSLTVTAGEKVTMSCKSSQSLLNSGNQKNYLTWYQQKPGQPPKLLIYWASTRESGVPDRFTGSGSGTDFTLTISSVQAEDLAVYYCQNAYYYPFTFGSGTKLEIKR for me?
Found: -1.5
